Test: Rat pharmacokinetics after IV infusion and oral dose (AUC oral, % F, Ue % PO)
Assay type: in vivo, Male Wistar Han rats
Settings: percentage of oral dose eliminated unchanged in urine (or estimate from iv urine fraction times oral bioavailability)
QUANTITY: Ue% po

Below, 5 molecules whose answers are already recorded.
Quick check: Ue% po of "Cc1cc(-c2cc(F)c(Cl)c(F)c2)ccc1[C@@H](CO)[C@H]1O[C@H](CO)[C@@H](O)[C@H](O)[C@@H]1O" ?
“++” (0.5 ≤ x ≤ 5%)

Find the recorded Ue% po belonging to "Cc1cc(-c2cncc(C(F)(F)F)n2)ccc1[C@@H](C)[C@H]1O[C@H](CO)[C@@H](O)[C@H](O)[C@@H]1O" and report it.
“++” (0.5 ≤ x ≤ 5%)

So what does the record say about Ue% po for "Cc1cc(-c2cncc(C(F)(F)F)c2)ccc1[C@@H](C)[C@H]1O[C@H](CO)[C@@H](O)[C@H](O)[C@@H]1O" ?
“+++” (>5%)

So what's the measured Ue% po for this one? "Cc1cc(-c2cnc(C(F)(F)F)cn2)ccc1[C@@H](C)[C@H]1O[C@H](CO)[C@@H](O)[C@H](O)[C@@H]1O"
“+++” (>5%)

Reported Ue% po for "C[C@H](c1ccc(-c2cnc(C(F)(F)F)cn2)cc1C(F)(F)F)[C@H]1O[C@H](CO)[C@@H](O)[C@H](O)[C@@H]1O" : what is it?
“+++” (>5%)

Read the next record carefully.
Which Ue% po value is on record for Cc1cc(-c2cc(C(F)(F)F)ccn2)ccc1[C@@H](C)[C@H]1O[C@H](CO)[C@@H](O)[C@H](O)[C@@H]1O (single isomer, unassigned) ?
“++” (0.5 ≤ x ≤ 5%)

// data source = patent US12297223B2
